I'd be grateful if you could share measured % of Wild-Type Signal for these entries.
target under test: Gβ1γ2 (Gβ1 mutants) (UniProt P54311+P63212, M101A)
Construct: made in house; host or cells: Sf9 insect cells (baculovirus), partially purified via (His)6-Gαi1 on Ni-NTA
test protocol: Phage ELISA: binding of peptide-displaying phage to wild-type or alanine-substituted b-βγ
Parameters: species or system rat
recorded conditions: Gβ1 Met101Ala; mean ± SD
Reply with just the number (in %).

Q) Value lookup for % of Wild-Type Signal; key = SCGHGLKVQSTIGACA [Compound 3C]
A) −4.2

Q) Value lookup for % of Wild-Type Signal; key = WCPPKLEQWYDGCA [Compound C2]
A) 157.1

Q) Value lookup for % of Wild-Type Signal; key = WCPPKAMTQLGIKAC [Compound C14]
A) 1.1

Q) Value lookup for % of Wild-Type Signal; key = SCEKRYGIEFCT [Compound C4]
A) 61.2

Q) Value lookup for % of Wild-Type Signal; key = SCARFFGTPGCT [Compound C8]
A) 23.6

Q) Value lookup for % of Wild-Type Signal; key = LCSKAYLLLGQTC [Compound 2F]
A) 6.0

Q) Value lookup for % of Wild-Type Signal; key = SCEKRLGVRSCT (phage-displayed) [Compound C5]
A) 47.8

Q) Value lookup for % of Wild-Type Signal; key = SCKRTKAQILLAPCT [Compound C1]
A) 70.5

Q) Value lookup for % of Wild-Type Signal; key = SIGKALFILGYPDYD [Compound 3.14]
A) 26.8

###

target under test: Gβ1γ2 (UniProt P54311+P63212)
test protocol: Competition phage ELISA: inhibition of SIGK-phage binding to immobilized biotinylated Gβ1γ2
Set-up: made in house; host or cells: Sf9 insect cells (baculovirus; co-expressed with BirA and (His)6-Gαi1, from which βγ was eluted); species or system rat
recorded conditions: IC50 in phage ELISA (SIGK competition)
reported metric: IC50
Please report the result as a number followed by the unit.

Q) Value lookup for IC50; key = O=C(O)C1CCCCC1c1c2ccc(=O)c(O)c-2oc2c(O)c(O)ccc12 (stereo not shown) [Compound M119]
A) 200 nM

###

I'd be grateful if you could share measured IC50 for these entries.
target under test: Gβ1γ2 (UniProt P54311+P63212)
test protocol: Competition phage ELISA: inhibition of SIGK-phage binding to immobilized biotinylated Gβ1γ2
Design: made in house; host or cells: Sf9 insect cells (baculovirus; co-expressed with BirA and (His)6-Gαi1, from which βγ was eluted); species or system rat
recorded conditions: Table 8; read-out: IC50
Please report the result as a number followed by the unit.

Q) Value lookup for IC50; key = Nc1c(S(=O)(=O)O)cc(Nc2cccc(S(N)(=O)=O)c2)c2c1C(=O)c1ccccc1C2=O
A) 43 µM

Q) Value lookup for IC50; key = O=C1c2ccccc2C(=O)c2c(Nc3cc4c5c(ccc6c7ccc8c9c(cc(Nc%10cccc%11c%10C(=O)c%10ccccc%10C%11=O)c(c3c56)c97)-c3ccccc3C8=O)C(=O)c3ccccc3-4)cccc21
A) 16 µM

Q) Value lookup for IC50; key = Nc1ccc(-c2ccc(Nc3cc(S(=O)(=O)O)c(N)c4c3C(=O)c3ccccc3C4=O)cc2)c(S(=O)(=O)O)c1
A) 68 µM

###

target under test: Gβ1γ2 (Gβ1 mutants) (UniProt P54311+P63212, M188A)
Construct: made in house; host or cells: Sf9 insect cells (baculovirus), partially purified via (His)6-Gαi1 on Ni-NTA
test protocol: Phage ELISA: binding of peptide-displaying phage to wild-type or alanine-substituted b-βγ
Design: species or system rat
recorded conditions: Gβ1 Met188Ala; mean ± SD
I'd be grateful if you could share measured % of Wild-Type Signal for these entries.
Reply with just the number (in %).

Q) Value lookup for % of Wild-Type Signal; key = SCARFFGTPGCT [Compound C8]
A) 122.6

Q) Value lookup for % of Wild-Type Signal; key = LCSKAYLLLGQTC [Compound 2F]
A) 8.5

Q) Value lookup for % of Wild-Type Signal; key = SCKRTKAQILLAPCT [Compound C1]
A) 4.0

Q) Value lookup for % of Wild-Type Signal; key = SCGHGLKVQSTIGACA [Compound 3C]
A) −5.7

Q) Value lookup for % of Wild-Type Signal; key = SIGKALFILGYPDYD [Compound 3.14]
A) 2.5

Q) Value lookup for % of Wild-Type Signal; key = WCPPKLEQWYDGCA [Compound C2]
A) −0.7

Q) Value lookup for % of Wild-Type Signal; key = SCEKRLGVRSCT (phage-displayed) [Compound C5]
A) 97.2

Q) Value lookup for % of Wild-Type Signal; key = SCEKRYGIEFCT [Compound C4]
A) 127.5

Q) Value lookup for % of Wild-Type Signal; key = WCPPKAMTQLGIKAC [Compound C14]
A) 9.9
